experimental protocol: Octanol-water partition coefficient, log P of the compound at 0.5 to 1.5 mg/ml by HPLC method
Type: physicochemical
property label: logP
Please state the value as a number alone, without comment.

Documented logP of `O=C(c1cc(Cc2n[nH]c(=O)c3ccccc23)ccc1F)N1CCN(C(=O)C2CC2)CC1` : 1.95

Noted for `O=C(COc1ccc(I)cc1)N1CCN(C(=O)c2cc(Cc3n[nH]c(=O)c4ccccc34)ccc2F)CC1` : its logP reads 3.25

# molecule `COc1ccc(C(=O)N2CCN(C(=O)c3cc(Cc4n[nH]c(=O)c5ccccc45)ccc3F)CC2)cc1I` ; its logP = 2.95

The molecule listed as `Cc1ccc(C(=O)N2CCN(C(=O)c3cc(Cc4n[nH]c(=O)c5ccccc45)ccc3F)CC2)cc1I` shows logP equal to 3.23

Reported logP of `O=C(c1ccc(I)cc1)N1CCN(C(=O)c2cc(Cc3n[nH]c(=O)c4ccccc34)ccc2F)CC1` : 3

Record `O=C(Cc1cccc(I)c1)N1CCN(C(=O)c2cc(Cc3n[nH]c(=O)c4ccccc34)ccc2F)CC1` , field logP: 3.13

According to the records, this molecule `O=C(c1cccc(I)c1)N1CCN(C(=O)c2cc(Cc3n[nH]c(=O)c4ccccc34)ccc2F)CC1` displays logP of 2.97

---

experimental protocol: Intrinisc clerarance in human liver microsomes assessed as residual compound level at 60 uM preincubated for 10 mins followed by NADPH addition in KH2PO4 at pH 7.4 by LC-MS method
Format: ADME
measurement context: read-out: CLH
property label: microsomal CLint at 60 µM (µL/min/mg)
API: value field is a number in µL/min/mg; no unit string.

microsomal CLint at 60 µM reported for this compound `O=C(c1ccc(I)cc1)N1CCN(C(=O)c2cc(Cc3n[nH]c(=O)c4ccccc34)ccc2F)CC1` : 85

Entry O=C(c1cc(Cc2n[nH]c(=O)c3ccccc23)ccc1F)N1CCN(C(=O)C2CC2)CC1 [OLAPARIB] ; microsomal CLint at 60 µM = 29

---

measured target: UniProtKB P02768
experimental protocol: Protein binding to human serum albumin at 0.5 to 1.5 mg/ml by HPLC method
Type: ADME
measurement context: read-out: PPB (converted)
We label by threshold. Values of fraction unbound strictly beneath 0.04 are label 1. Values of 0.04 and up are label 0.

Inquiry: Quick check: fraction unbound of `O=C(COc1ccc(I)cc1)N1CCN(C(=O)c2cc(Cc3n[nH]c(=O)c4ccccc34)ccc2F)CC1` under 0.04?
Reply text: label 1

Inquiry: In plain terms, does `O=C(c1cc(Cc2n[nH]c(=O)c3ccccc23)ccc1F)N1CCN(S(=O)(=O)c2ccc(I)cc2)CC1` come in under 0.04 for fraction unbound?
Reply text: label 1

Inquiry: Could you please tell me whether fraction unbound recorded for CCCC1O[C@@H]2C[C@H]3[C@@H]4CCC5=CC(=O)C=C[C@]5(C)[C@H]4[C@@H](O)C[C@]3(C)[C@]2(C(=O)CO)O1 (stereo partly drawn) [BUDESONIDE] is less than 0.04?
Reply text: label 0

Inquiry: Strictly below 0.04 in fraction unbound? NC(=O)N1c2ccccc2C=Cc2ccccc21 [CARBAMAZEPINE]
Reply text: label 0

Inquiry: Is the reported fraction unbound for `COc1ccc(C(=O)N2CCN(C(=O)c3cc(Cc4n[nH]c(=O)c5ccccc45)ccc3F)CC2)cc1I` strictly below 0.04?
Reply text: label 1

Inquiry: Please indicate whether the reported fraction unbound of COC(=O)C1=C(C)NC(C)=C(C(=O)OCCN(C)Cc2ccccc2)C1c1cccc([N+](=O)[O-])c1 (stereo not drawn) is strictly below 0.04.
Reply text: label 0

Inquiry: Strictly below 0.04 in fraction unbound? `O=C1CN=C(c2ccccn2)c2cc(Br)ccc2N1`
Reply text: label 0

---

experimental protocol: Metabolic stability in black-6 mouse plasma assessed as residual compound level at 250 uM incubated for 20 hrs by LC-MS method
Type: ADME, cell-free
measurement context: read-out: Stability
property label: remaining at 20 h, 250 µM (%)
State the answer as a number, implicitly in %.

Please fill in: remaining at 20 h, 250 µM reported for `O=C(c1ccc(I)cc1)N1CCN(C(=O)c2cc(Cc3n[nH]c(=O)c4ccccc34)ccc2F)CC1` = 98

---

measured target: albumin (Homo sapiens, UniProt P02768)
Sequence (P02768 whole entry): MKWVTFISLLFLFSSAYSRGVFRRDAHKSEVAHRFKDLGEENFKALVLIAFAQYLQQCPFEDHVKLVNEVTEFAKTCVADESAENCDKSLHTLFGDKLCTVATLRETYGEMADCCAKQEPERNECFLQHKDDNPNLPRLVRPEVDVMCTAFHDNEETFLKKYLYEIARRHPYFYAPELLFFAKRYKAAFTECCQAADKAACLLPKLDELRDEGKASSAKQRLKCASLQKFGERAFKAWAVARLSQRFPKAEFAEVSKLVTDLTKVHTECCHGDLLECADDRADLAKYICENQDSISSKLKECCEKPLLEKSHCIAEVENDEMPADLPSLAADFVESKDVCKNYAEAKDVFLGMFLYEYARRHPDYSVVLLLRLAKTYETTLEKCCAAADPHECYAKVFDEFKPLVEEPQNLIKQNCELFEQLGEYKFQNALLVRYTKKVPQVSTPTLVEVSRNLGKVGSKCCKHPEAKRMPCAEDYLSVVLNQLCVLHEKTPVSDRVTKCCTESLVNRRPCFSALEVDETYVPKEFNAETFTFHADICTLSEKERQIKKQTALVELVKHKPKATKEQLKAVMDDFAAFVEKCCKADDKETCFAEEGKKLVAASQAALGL
experimental protocol: Protein binding to human serum albumin at 0.5 to 1.5 mg/ml by HPLC method
Type: ADME
measurement context: read-out: PPB (converted)
property label: fraction unbound
Answer with a number only.

What the record says about `Cc1ccc(C(=O)N2CCN(C(=O)c3cc(Cc4n[nH]c(=O)c5ccccc45)ccc3F)CC2)cc1I` : fraction unbound is 0.024

So, `O=C(Cc1cccc(I)c1)N1CCN(C(=O)c2cc(Cc3n[nH]c(=O)c4ccccc34)ccc2F)CC1` ? Its fraction unbound was 0.025

Item: `O=C(c1ccc(I)cc1)N1CCN(C(=O)c2cc(Cc3n[nH]c(=O)c4ccccc34)ccc2F)CC1` | fraction unbound: 0.038

The compound listed as `CNC(=C[N+](=O)[O-])NCCSCc1csc(CN(C)C)n1` has a reported fraction unbound of 0.65

---

Provide the recorded IC50 for the entries that follow.
measured target: Poly [ADP-ribose] polymerase 1 (Homo sapiens, UniProt P09874)
Sequence (P09874 whole entry): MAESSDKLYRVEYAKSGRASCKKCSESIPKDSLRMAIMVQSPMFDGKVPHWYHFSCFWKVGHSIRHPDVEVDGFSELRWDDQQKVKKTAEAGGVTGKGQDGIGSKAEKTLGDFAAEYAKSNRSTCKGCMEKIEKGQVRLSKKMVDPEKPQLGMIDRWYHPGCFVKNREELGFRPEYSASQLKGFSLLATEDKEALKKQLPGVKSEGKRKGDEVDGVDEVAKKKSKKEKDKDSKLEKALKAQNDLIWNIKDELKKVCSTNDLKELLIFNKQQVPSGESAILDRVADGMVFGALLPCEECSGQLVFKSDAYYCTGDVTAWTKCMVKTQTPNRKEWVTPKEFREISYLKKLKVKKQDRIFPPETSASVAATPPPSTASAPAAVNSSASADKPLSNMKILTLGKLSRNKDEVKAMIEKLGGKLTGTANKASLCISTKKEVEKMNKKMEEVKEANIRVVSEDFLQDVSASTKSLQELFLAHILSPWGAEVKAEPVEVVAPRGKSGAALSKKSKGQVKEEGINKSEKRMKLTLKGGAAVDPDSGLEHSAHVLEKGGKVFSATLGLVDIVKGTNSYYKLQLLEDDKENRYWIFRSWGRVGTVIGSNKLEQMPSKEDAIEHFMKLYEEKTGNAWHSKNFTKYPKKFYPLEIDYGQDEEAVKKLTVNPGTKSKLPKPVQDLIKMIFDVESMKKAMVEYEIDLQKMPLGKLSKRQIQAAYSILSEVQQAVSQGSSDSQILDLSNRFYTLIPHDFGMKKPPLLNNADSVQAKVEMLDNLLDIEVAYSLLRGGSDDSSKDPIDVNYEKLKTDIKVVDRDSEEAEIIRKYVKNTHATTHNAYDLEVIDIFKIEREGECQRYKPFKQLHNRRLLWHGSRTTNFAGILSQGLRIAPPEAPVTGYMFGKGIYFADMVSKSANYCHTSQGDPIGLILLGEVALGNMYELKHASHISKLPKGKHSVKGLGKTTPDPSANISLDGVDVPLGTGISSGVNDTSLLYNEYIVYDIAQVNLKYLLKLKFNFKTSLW
experimental protocol: Inhibition of PARP1 (unknown origin) incubated for 10 mins using biotinylated NAD+ and activated DNA by colorimetric assay
Entry rule: numbers only, all in nM.

Entry `Cc1ccc(C(=O)N2CCN(C(=O)c3cc(Cc4n[nH]c(=O)c5ccccc45)ccc3F)CC2)cc1I` : IC50 on Poly [ADP-ribose] polymerase 1 (Homo sapiens, UniProt P09874) = 16.9

Reading of IC50 for `O=C(c1cc(Cc2n[nH]c(=O)c3ccccc23)ccc1F)N1CCN(S(=O)(=O)c2ccc(I)cc2)CC1` with Poly [ADP-ribose] polymerase 1 (Homo sapiens, UniProt P09874): 22.6

IC50 of `COc1ccc(C(=O)N2CCN(C(=O)c3cc(Cc4n[nH]c(=O)c5ccccc45)ccc3F)CC2)cc1I` , assay on Poly [ADP-ribose] polymerase 1 (Homo sapiens, UniProt P09874), is 17.6

Field IC50 (Poly [ADP-ribose] polymerase 1 (Homo sapiens, UniProt P09874)), entry `O=C(COc1ccc(I)cc1)N1CCN(C(=O)c2cc(Cc3n[nH]c(=O)c4ccccc34)ccc2F)CC1` : 3

Kindly note: Poly [ADP-ribose] polymerase 1 (Homo sapiens, UniProt P09874), `O=C(Cc1cccc(I)c1)N1CCN(C(=O)c2cc(Cc3n[nH]c(=O)c4ccccc34)ccc2F)CC1` , IC50 value reported: 5.8
